inhibition overview
target: Alpha-glucosidase (Saccharomyces cerevisiae S288c) (UniProt P53341+P38158+P07265); assay: Inhibition of yeast alpha-glucosidase using p-nitrophenyl glycoside as substrate at 1000 uM by spectrometric method relative to control; assay type: protein assay
MEASURED_METRIC: inhibition (%)

test_smiles=OC[C@@H]1[C@@H](O)[C@H](O)[C@H]2[C@@H](O)[C@H](F)CN21 measured_metric=inhibition reported_measurement=0
test_smiles=OC[C@@H]1[C@@H](O)[C@H](O)[C@H]2[C@H](O)[C@H](F)CN21 measured_metric=inhibition reported_measurement=12
test_smiles=OC[C@@H]1[C@@H](O)[C@H](O)[C@H]2[C@H](O)C(F)(F)CN21 measured_metric=inhibition reported_measurement=24
test_smiles=OC[C@@H]1[C@@H](O)[C@H](O)[C@H]2C[C@H](F)CN12 measured_metric=inhibition reported_measurement=0
test_smiles=OC[C@@H]1[C@@H](O)[C@H](O)[C@H]2C[C@@H](O)CN12 measured_metric=inhibition reported_measurement=44.1

====

target: Alpha-galactosidase (Coffea arabica) (UniProt Q42656); test: Inhibition of coffee bean alpha-galactosidase using p-nitrophenyl glycoside as substrate at 1000 uM by spectrometric method relative to control
Sequence (Q42656 16-378 limits assumed): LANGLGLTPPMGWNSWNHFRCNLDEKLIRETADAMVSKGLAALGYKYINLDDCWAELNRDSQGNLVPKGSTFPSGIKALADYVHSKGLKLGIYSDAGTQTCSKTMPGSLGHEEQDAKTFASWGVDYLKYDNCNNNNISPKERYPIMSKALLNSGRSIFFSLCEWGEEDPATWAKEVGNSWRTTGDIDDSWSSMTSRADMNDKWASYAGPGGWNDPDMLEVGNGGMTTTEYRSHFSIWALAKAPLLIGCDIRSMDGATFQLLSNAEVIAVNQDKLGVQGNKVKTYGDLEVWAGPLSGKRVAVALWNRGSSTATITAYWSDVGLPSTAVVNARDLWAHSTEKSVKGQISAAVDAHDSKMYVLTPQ
MEASURED_METRIC: inhibition (%)

test_smiles=OC[C@@H]1[C@@H](O)[C@H](O)[C@H]2[C@H](O)[C@H](F)CN21 measured_metric=inhibition reported_measurement=1.7
test_smiles=OC[C@@H]1[C@@H](O)[C@H](O)[C@H]2CC(F)(F)CN12 measured_metric=inhibition reported_measurement=1.6
test_smiles=OC[C@@H]1[C@@H](O)[C@H](O)[C@H]2[C@@H](O)C(F)(F)CN21 measured_metric=inhibition reported_measurement=0.2
test_smiles=OC[C@@H]1[C@@H](O)[C@H](O)[C@H]2C[C@H](F)CN12 measured_metric=inhibition reported_measurement=2.9
test_smiles=OC[C@@H]1[C@@H](O)[C@H](O)[C@H]2[C@@H](O)[C@@H](F)CN21 measured_metric=inhibition reported_measurement=0

====

tested on: Escherichia coli; experiment: Inhibition of Escherichia coli beta-glucuronidase using p-nitrophenyl glycoside as substrate at 1000 uM by spectrometric method relative to control
The compounds listed here are annotated with their inhibition.
MEASURED_METRIC: inhibition (%)

test_smiles=OC[C@@H]1[C@@H](O)[C@H](O)[C@H]2C[C@@H](F)CN12 measured_metric=inhibition reported_measurement=1.2
test_smiles=OC[C@@H]1[C@@H](O)[C@H](O)[C@H]2CC(F)(F)CN12 measured_metric=inhibition reported_measurement=0
test_smiles=OC[C@@H]1[C@@H](O)[C@H](O)[C@H]2[C@@H](O)[C@@H](F)CN21 measured_metric=inhibition reported_measurement=7
test_smiles=OC[C@@H]1[C@@H](O)[C@H](O)[C@H]2C[C@@H](O)CN12 measured_metric=inhibition reported_measurement=20.5

====

assay: Inhibition of Aspergillus niger amyloglucosidase using p-nitrophenyl glycoside as substrate by spectrometric method
Measured pIC50 of individual entries
MEASURED_METRIC: pIC50

test_smiles=OC[C@@H]1[C@@H](O)[C@H](O)[C@H]2C[C@@H](F)CN12 reported_measurement=3.199
test_smiles=OC[C@@H]1[C@@H](O)[C@H](O)[C@H]2[C@@H](O)[C@H](F)CN21 reported_measurement=4.959
test_smiles=OC[C@@H]1[C@@H](O)[C@H](O)[C@H]2[C@H](O)[C@@H](O)CN21 reported_measurement=5.201
test_smiles=OC[C@@H]1[C@@H](O)[C@H](O)[C@H]2[C@H](O)[C@H](O)CN21 reported_measurement=5.276
test_smiles=OC[C@@H]1[C@@H](O)[C@H](O)[C@H]2CC(F)(F)CN12 reported_measurement=4.569
test_smiles=OC[C@@H]1[C@@H](O)[C@H](O)[C@H]2[C@H](O)C(F)(F)CN21 reported_measurement=5.678
test_smiles=OC[C@@H]1[C@@H](O)[C@H](O)[C@H]2[C@H](O)[C@@H](F)CN21 reported_measurement=4.456
test_smiles=OC[C@@H]1[C@@H](O)[C@H](O)[C@H]2[C@@H](O)C(F)(F)CN21 reported_measurement=3.609
test_smiles=OC[C@@H]1[C@@H](O)[C@H](O)[C@H]2[C@@H](F)[C@@H](O)CN21 reported_measurement=3.818
test_smiles=OC[C@@H]1[C@@H](O)[C@H](O)[C@H]2[C@H](O)[C@H](F)CN21 reported_measurement=6.854
test_smiles=OC[C@@H]1[C@@H](O)[C@H](O)[C@H]2[C@@H](O)[C@@H](O)CN21 reported_measurement=4.194
test_smiles=OC[C@@H]1[C@@H](O)[C@H](O)[C@@H]2N1C[C@H](O)C2(F)F reported_measurement=4.409
test_smiles=OC[C@@H]1[C@@H](O)[C@H](O)[C@H]2C[C@H](F)CN12 reported_measurement=5.658
test_smiles=OC[C@@H]1[C@@H](O)[C@H](O)[C@@H]2N1C[C@@H](O)C2(F)F reported_measurement=4.222
test_smiles=OC[C@@H]1[C@@H](O)[C@H](O)[C@H]2[C@@H](O)[C@@H](F)CN21 reported_measurement=3.606

Every entry's value here was drawn from ChEMBL document CHEMBL5247629.
